Target: EP2 receptor (Homo sapiens, UniProt P43116)
Construct: expressed in transfected cells
Sequence (P43116 whole entry): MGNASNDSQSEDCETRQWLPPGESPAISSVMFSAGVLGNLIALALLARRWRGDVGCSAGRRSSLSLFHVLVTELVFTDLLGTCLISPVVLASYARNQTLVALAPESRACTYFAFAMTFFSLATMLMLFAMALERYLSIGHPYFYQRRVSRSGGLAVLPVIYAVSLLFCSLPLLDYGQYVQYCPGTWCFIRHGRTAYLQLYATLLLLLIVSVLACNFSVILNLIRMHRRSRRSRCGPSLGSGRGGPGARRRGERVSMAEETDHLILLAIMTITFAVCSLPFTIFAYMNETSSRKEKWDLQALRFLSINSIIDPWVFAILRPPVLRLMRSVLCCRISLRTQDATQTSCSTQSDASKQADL
Test: cAMP assay (TR-FRET or HTRF kit, forskolin), Examples 5 and 6
Assay type: cell-based
Conditions: Table 4 (Example 6); read-out: EC50, EP receptor
Protocol: [table] Prodrug XV (for structure see FIG. 10) as well as treprostinil were tested for 3 G-protein-coupled receptors (GPCRs), namely DP1, EP2, and IP, using cyclic adenosine monophosphate (cAMP) assay. […] The plate was then incubated at room temperature for 60 minutes before reading fluorescent emissions at 620 nm and 665 or 668 nm with excitation at 314 nm on FlexStation III (Molecular Devices). […]
measured-endpoint: EC50 (nM)
Please reply with the bare figure in nM and do not write the unit itself.

Exercise: For the molecule shown here, CCCCC[C@H](O)CC[C@@H]1[C@H]2Cc3cccc(OCC(=O)NS(C)(=O)=O)c3C[C@H]2C[C@H]1O [Prodrug XIV, treprostinil methanesulfonamide] , give the reported EC50.
Key: 67

###

test: in vitro; conditions: monkey, liver microsomes, pH 7.4
measured-endpoint: half-life at 500 nM

Exercise: For the compound shown here, CCOc1ccc2ccc(=O)oc2c1 [Prodrug 7-EC, 7-ethoxycoumarin] , give the reported half-life at 500 nM.
Key: > 6 h

###

assay: Solution stability in vehicle (UPLC area %); format: physicochemical; settings: same vehicle; T24 hours
measured-endpoint: Solution stability, T24 hours Purity (% Area)
Please reply with the bare figure in % Area and do not write the unit itself.

Take a look at these entries with their results.
>>> result_value("CCCCC[C@@H](CC[C@@H]1[C@H]2Cc3cccc(OCC(=O)O)c3C[C@H]2C[C@H]1O)OC(=O)OC [Prodrug IV]")
99.02
>>> result_value("CCCCC[C@H](O)CC[C@@H]1[C@H]2Cc3cccc(OCC(=O)N[C@@H](C)C(=O)O)c3C[C@H]2C[C@H]1O [Prodrug X, treprostinil alanine amide]")
96.32
>>> result_value("CCCCC[C@H](O)CC[C@@H]1[C@H]2Cc3cccc(OCC(=O)NC(C(=O)O)C(C)C)c3C[C@H]2C[C@H]1O (stereo partly shown) [Prodrug XI, treprostinil valine amide]")
99.39

Exercise: For the compound shown here, CCCCC[C@H](O)CC[C@@H]1[C@H]2Cc3cccc(OCC(=O)N[C@@H](CO)C(=O)O)c3C[C@H]2C[C@H]1O [Prodrug XIII, treprostinil serine amide] , give the reported Solution stability, T24 hours Purity.
Key: 97.81

Exercise: For the compound shown here, CCCCC[C@H](O)CC[C@@H]1[C@H]2Cc3cccc(OCC(=O)NC(CC(=O)O)C(=O)O)c3C[C@H]2C[C@H]1O (stereo partly shown) [Prodrug XII, treprostinil aspartic acid amide] , give the reported Solution stability, T24 hours Purity.
Key: 98.68

Exercise: For the compound shown here, CCCCC[C@H](O)CC[C@@H]1[C@H]2Cc3cccc(OCC(=O)NS(C)(=O)=O)c3C[C@H]2C[C@H]1O [Prodrug XIV, treprostinil methanesulfonamide] , give the reported Solution stability, T24 hours Purity.
Key: 94.25

Exercise: For the compound shown here, CCCCC[C@H](O)CC[C@@H]1[C@H]2Cc3cccc(OCC(=O)O)c3C[C@H]2C[C@H]1OC(=O)OC [Prodrug III] , give the reported Solution stability, T24 hours Purity.
Key: 94.31

###

test system: Sprague Dawley rats; assay: Rat intraplantar injection model, clinical observation score (Example 9); assay type: in vivo, Sprague Dawley rat; settings: 100 μg/mL (cycle 1); 15 min
measured-endpoint: clinical score

>>> result_value("CCCCC[C@@H](CC[C@@H]1[C@H]2Cc3cccc(OCC(=O)O)c3C[C@H]2C[C@H]1O)OC(=O)N(C)C [Prodrug II, treprostinil side-chain carbamate]")
"non-zero"
>>> result_value("CCCCC[C@H](O)CC[C@@H]1[C@H]2Cc3cccc(OCC(=O)O)c3C[C@H]2C[C@H]1OC(=O)N(C)C [Prodrug I, treprostinil ring carbamate]")
"non-zero"
>>> result_value("CCCCC[C@H](O)CC[C@@H]1[C@H]2Cc3cccc(OCC(=O)O)c3C[C@H]2C[C@H]1O")
"non-zero"
>>> result_value("CCCCC[C@H](O)CC[C@@H]1[C@H]2Cc3cccc(OCC(=O)NCC(=O)O)c3C[C@H]2C[C@H]1O [Prodrug VII]")
"non-zero"

###

Biological target: DP1 receptor (Homo sapiens, UniProt Q13258)
Construct: expressed in transfected cells
Sequence (Q13258 1-359): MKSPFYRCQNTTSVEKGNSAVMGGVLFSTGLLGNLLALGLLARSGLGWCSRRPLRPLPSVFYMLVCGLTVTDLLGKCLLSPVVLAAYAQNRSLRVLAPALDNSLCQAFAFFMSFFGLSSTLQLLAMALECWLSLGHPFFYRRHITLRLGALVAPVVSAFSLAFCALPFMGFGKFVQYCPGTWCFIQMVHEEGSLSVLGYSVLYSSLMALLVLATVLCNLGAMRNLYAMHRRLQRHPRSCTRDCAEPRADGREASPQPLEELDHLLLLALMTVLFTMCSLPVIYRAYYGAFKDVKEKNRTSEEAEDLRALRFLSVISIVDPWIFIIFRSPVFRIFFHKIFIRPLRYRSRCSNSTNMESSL
Test: cAMP assay (TR-FRET or HTRF kit, forskolin), Examples 5 and 6
Type: cell-based
Conditions: Table 4 (Example 6); read-out: EC50, DP receptor
measured-endpoint: EC50 (µM)
Please reply with the bare figure in µM and do not write the unit itself.

Exercise: For the compound shown here, CCCCC[C@H](O)CC[C@@H]1[C@H]2Cc3cccc(OCC(=O)NS(C)(=O)=O)c3C[C@H]2C[C@H]1O [Prodrug XIV, treprostinil methanesulfonamide] , give the reported EC50.
Key: 0.0388

###

target: IP1 receptor (Homo sapiens); construct: expressed in transfected cells; assay: cAMP assay (TR-FRET or HTRF kit, forskolin), Examples 5 and 6; assay type: cell-based; settings: Table 3 (Example 5); read-out: EC50, IP receptor
Sequence (P43119 whole entry): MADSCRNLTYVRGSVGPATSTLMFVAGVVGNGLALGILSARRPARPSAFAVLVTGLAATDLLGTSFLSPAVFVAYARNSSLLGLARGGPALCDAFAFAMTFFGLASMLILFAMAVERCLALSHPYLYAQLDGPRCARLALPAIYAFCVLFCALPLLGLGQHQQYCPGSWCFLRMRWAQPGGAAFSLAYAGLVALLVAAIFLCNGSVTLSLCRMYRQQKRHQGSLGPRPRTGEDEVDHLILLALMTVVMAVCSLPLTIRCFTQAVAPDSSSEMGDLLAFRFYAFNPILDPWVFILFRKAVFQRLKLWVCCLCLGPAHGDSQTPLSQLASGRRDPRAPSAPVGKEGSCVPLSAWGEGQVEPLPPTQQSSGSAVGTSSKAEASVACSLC
Reported EC50 by item:

Exercise: For the compound shown here, "CCCCC[C@H](O)CC[C@@H]1[C@H]2Cc3cccc(OCC(=O)O)c3C[C@H]2C[C@H]1O" , give the reported EC50.
Key: 0.0779 nM

Exercise: For the compound shown here, CCCCC[C@H](O)CC[C@@H]1[C@H]2Cc3cccc(OCC(=O)OCC(=O)O)c3C[C@H]2C[C@H]1O [Prodrug XV] , give the reported EC50.
Key: 4.28 nM

###

experiment: Equilibrium solubility in vehicle; format: physicochemical; settings: aqueous buffer, thermodynamic from solid; 20 mM sodium phosphate dibasic with 125 mM sodium chloride; T0 hours; read-out: Equilibrium solubility, T0 hours Concentration
measured-endpoint: solubility thermodynamic at 23 h (µg/mL)
Please reply with the bare figure in µg/mL and do not write the unit itself.

Take a look at these entries with their results.
>>> result_value("CCCCC[C@H](O)CC[C@@H]1[C@H]2Cc3cccc(OCC(=O)NC(C(=O)O)C(C)C)c3C[C@H]2C[C@H]1O (stereo partly shown) [Prodrug XI, treprostinil valine amide]")
11500
>>> result_value("CCCCC[C@H](O)CC[C@@H]1[C@H]2Cc3cccc(OCC(=O)N[C@@H](C)C(=O)O)c3C[C@H]2C[C@H]1O [Prodrug X, treprostinil alanine amide]")
10000
>>> result_value("CCCCC[C@@H](CC[C@@H]1[C@H]2Cc3cccc(OCC(=O)O)c3C[C@H]2C[C@H]1O)OC(=O)OC [Prodrug IV]")
12500

Exercise: For the compound shown here, CCCCC[C@H](O)CC[C@@H]1[C@H]2Cc3cccc(OCC(=O)N[C@@H](CO)C(=O)O)c3C[C@H]2C[C@H]1O [Prodrug XIII, treprostinil serine amide] , give the reported solubility thermodynamic at 23 h.
Key: 3200

Exercise: For the compound shown here, CCCCC[C@H](O)CC[C@@H]1[C@H]2Cc3cccc(OCC(=O)NS(C)(=O)=O)c3C[C@H]2C[C@H]1O [Prodrug XIV, treprostinil methanesulfonamide] , give the reported solubility thermodynamic at 23 h.
Key: 29500

Exercise: For the compound shown here, CCCCC[C@H](O)CC[C@@H]1[C@H]2Cc3cccc(OCC(=O)O)c3C[C@H]2C[C@H]1OC(=O)OC [Prodrug III] , give the reported solubility thermodynamic at 23 h.
Key: 6100

Exercise: For the compound shown here, CCCCC[C@H](O)CC[C@@H]1[C@H]2Cc3cccc(OCC(=O)NC(CC(=O)O)C(=O)O)c3C[C@H]2C[C@H]1O (stereo partly shown) [Prodrug XII, treprostinil aspartic acid amide] , give the reported solubility thermodynamic at 23 h.
Key: 7400

###

Reported solubility at 23 h by item:
experiment: Equilibrium solubility in vehicle; format: physicochemical; conditions: aqueous buffer, thermodynamic from solid; 20 mM sodium phosphate dibasic with 125 mM sodium chloride; approximate; read-out: Solubility in the selected vehicle

>>> result_value("CCCCC[C@H](O)CC[C@@H]1[C@H]2Cc3cccc(OCC(=O)N[C@@H](CO)C(=O)O)c3C[C@H]2C[C@H]1O [Prodrug XIII, treprostinil serine amide]")
"~3.5 mg/mL"

Would you kindly look at the next entry?
Exercise: For the molecule shown here, CCCCC[C@H](O)CC[C@@H]1[C@H]2Cc3cccc(OCC(=O)NS(C)(=O)=O)c3C[C@H]2C[C@H]1O [Prodrug XIV, treprostinil methanesulfonamide] , give the reported solubility at 23 h.
Key: ~30 mg/mL
